Consider the following molecules; for each one, report its clearance.
- ASSAY DETAILS: Multi-component PK in rats after i.v. administration of ASEP
- Type: in vivo, Sprague-Dawley rats
- CONDITIONS: male, Sprague-Dawley, rat, plasma, iv, 1.76 ml/kg, rat plasma, Low group: single i.v. 1.76 ml/kg of 5 times concentrated ASEP, mean ± SD, n=3; read-out: Cl (converted)
- Method: The animal experiments were conducted in line with the Guide for the Care and Use of Laboratory Animals (published by the USA National Institutes of Health, NIH Publication no. 85-23, revised 1996), which were approved by the Animal Care and Use Committee of the College of Animal Science (College of Bee Science), Fujian Agriculture and Forestry University (Approval Number: […]2019004). […] All rats were acclimated to the facilities and environment for 7 days before the experiments. […]
All answers are understood in mL/min, so give the number only.

Ask | Suppose we examine the molecule `O=C(O)c1ccc(O)c(O)c1` ; what clearance value has been reported?
Reply | 96

Ask | Entry to check: `O=C(/C=C/c1ccc(O)c(O)c1)O[C@@H]1C[C@](O)(C(=O)O)C[C@@H](O)[C@H]1O`
Reply | 8.5

###

- ASSAY DETAILS: Multi-component PK in rats after i.v. administration of ASEP
- Format: in vivo, Sprague-Dawley rats
- CONDITIONS: male, Sprague-Dawley, rat, plasma, iv, 3.52 ml/kg, rat plasma, High group: single i.v. 3.52 ml/kg of 5 times concentrated ASEP, mean ± SD, n=3; read-out: AUC0-t
REPORTED METRIC: AUC(0-t) (ng·h/mL)
All answers are understood in ng·h/mL, so give the number only.

Ask | Suppose we examine the compound `O=C(O)c1ccc(O)c(O)c1` ; what AUC(0-t) value has been reported?
Reply | 308

Ask | Entry to check: `O=C(/C=C/c1ccc(O)c(O)c1)O[C@@H]1C[C@](O)(C(=O)O)C[C@@H](O)[C@H]1O`
Reply | 3410

###

- ASSAY DETAILS: Multi-component PK in rats after i.v. administration of ASEP
- Type: in vivo, Sprague-Dawley rats
- CONDITIONS: male, Sprague-Dawley, rat, in vivo, iv, 3.52 ml/kg; read-out: AUC0-t
- Method: The animal experiments were conducted in line with the Guide for the Care and Use of Laboratory Animals (published by the USA National Institutes of Health, NIH Publication no. 85-23, revised 1996), which were approved by the Animal Care and Use Committee of the College of Animal Science (College of Bee Science), Fujian Agriculture and Forestry University (Approval Number: […]2019004). […] All rats were acclimated to the facilities and environment for 7 days before the experiments. […]
REPORTED METRIC: AUC(0-t) (ng·h/mL)
All answers are understood in ng·h/mL, so give the number only.

Ask | Suppose we examine the compound COc1cc(/C=C/CO)cc(OC)c1O[C@@H]1O[C@H](CO)[C@@H](O)[C@H](O)[C@H]1O [EB, eleutheroside B] ; what AUC(0-t) value has been reported?
Reply | 4530

###

- ASSAY DETAILS: Multi-component PK in rats after i.v. administration of ASEP
- Assay type: in vivo, Sprague-Dawley rats
- CONDITIONS: male, Sprague-Dawley, rat, in vivo, iv, 1.76 ml/kg; read-out: MRT0-t
REPORTED METRIC: MRT last (min)
All answers are understood in min, so give the number only.

Ask | Suppose we examine the molecule COc1cc(/C=C/CO)cc(OC)c1O[C@@H]1O[C@H](CO)[C@@H](O)[C@H](O)[C@H]1O [EB, eleutheroside B] ; what MRT last value has been reported?
Reply | 26.4

Every entry's value here was drawn from paper PMC7457137.
